# Test system: SK-MEL-5
# assay procedure: NCI tumour cell line growth inhibition, 48 h
Calls of active or inactive are those of the source. Cut-off read from the data, not from the text of the source: active = GI50 up to about 1.1 µM and inactive = higher.

[
  {
    "compound": "CC1(C)CC2C(=O)c3ccccc3NC2c2ccccc21 (configuration not stated)",
    "GI50": "3.5 µM (inactive)"
  },
  {
    "compound": "COc1ccc(C(O)c2ccccn2)cc1 (configuration not stated)",
    "GI50": "> 100 µM (inactive)"
  },
  {
    "compound": "COc1cc(CCCC(O)COc2cccc3c2C2(O)CCCCCC32)cc(OC)c1 (configuration not stated)",
    "GI50": "7.85 µM (inactive)"
  },
  {
    "compound": "CCC1([N+](=O)[O-])CN(N=O)C1",
    "GI50": "> 100 µM (inactive)"
  },
  {
    "compound": "O=C(O)Cn1cnc2c(O)nc(Nc3ccccc3)nc21",
    "GI50": "> 100 µM (inactive)"
  },
  {
    "compound": "c1csc(-c2cscc2-c2cccs2)c1",
    "GI50": "46.8 µM (inactive)"
  },
  {
    "compound": "COC1(C)Cc2c(c(C)c(O)c3c2C(=O)C=C(Cl)C3=O)O1 (configuration not stated)",
    "GI50": "40.8 µM (inactive)"
  },
  {
    "compound": "O=C(NCc1ccccc1)c1cnc(Cl)cn1",
    "GI50": "54 µM (inactive)"
  },
  {
    "compound": "C=C1C(C2(C)C(OC(C)=O)CC(=O)OC(C)(COC(C)=O)C2CC(=O)OC)C(OC=O)C(OC(=O)C(O)C(C)CC)C2(C)C(c3ccoc3)CC(=O)C12O (configuration not stated)",
    "GI50": "2.94 µM (inactive)"
  },
  {
    "compound": "Cc1ccc(NC(=O)C(=O)C2C(=O)NC(=O)NC2=O)c(C)c1",
    "GI50": "> 100 µM (inactive)"
  },
  {
    "compound": "O=C1C(=O)N(C(=O)c2ccc(Cl)c(Cl)c2)c2ccc(Cl)cc21",
    "GI50": "> 100 µM (inactive)"
  },
  {
    "compound": "COc1cc2ccc3ccncc3c2cc1OC",
    "GI50": "> 10 µM (inactive)"
  },
  {
    "compound": "CN(Cc1c[n+]([O-])c2nc(N)nc(N)c2n1)c1ccc(C(=O)NC23CC4CC(CC(C4)C2)C3)cc1",
    "GI50": "34.7 µM (inactive)"
  },
  {
    "compound": "CCOC(=O)c1ccc(-c2cc(C)[nH]n2)[nH]1",
    "GI50": "> 100 µM (inactive)"
  },
  {
    "compound": "COC[C@H]1OC(=O)c2coc3c2[C@@]1(C)C1=C(C3=O)[C@@H]2CCC(=O)[C@@]2(C)C[C@H]1OC(C)=O [WORTMANNIN]",
    "GI50": "11.5 µM (inactive)"
  },
  {
    "compound": "O=C(NC1C(=O)NNC1c1ccccc1Cl)c1ccccc1 (configuration not stated)",
    "GI50": "> 100 µM (inactive)"
  },
  {
    "compound": "COc1cccc2nc3c(C(=O)NCCN(C)C)cccc3nc12",
    "GI50": "11.8 µM (inactive)"
  },
  {
    "compound": "CC(=O)C1C(=O)C(=O)N(c2ccc([N+](=O)[O-])cc2[N+](=O)[O-])C1=O (configuration not stated)",
    "GI50": "> 100 µM (inactive)"
  },
  {
    "compound": "Cc1nc2sccn2c1C(=O)NC(=O)Nc1ccc(Cl)cc1",
    "GI50": "> 100 µM (inactive)"
  },
  {
    "compound": "CCOC(=O)C1(C(=O)OCC)C(C(C)(C)C)=C(C)c2ccccc21",
    "GI50": "9.59 µM (inactive)"
  },
  {
    "compound": "COc1cccc(NC(=O)CC(=O)N2NC(C)C(/N=N/c3cccc(C(=O)O)c3)C2=O)c1 (configuration not stated)",
    "GI50": "> 100 µM (inactive)"
  },
  {
    "compound": "COc1cccc(NC(=O)CC(=O)N2N=C(C)C(/N=N\\c3ccc(S(=O)(=O)c4ccc(/N=N/C5C(=O)N(C(=O)CC(=O)Nc6cccc(OC)c6)N=C5C)cc4)cc3)C2=O)c1 (configuration not stated)",
    "GI50": "> 100 µM (inactive)"
  }
]
